pIC50: −log10 of the molar value.
Collected pIC50 for Protein arginine N-methyltransferase 3 (Homo sapiens, UniProt O60678) across several studies; molecules listed below.

Recorded pIC50 for CN(CCN)Cc1n[nH]nc1-c1cccc(C(F)(F)F)c1 on Protein arginine N-methyltransferase 3 (Homo sapiens, UniProt O60678) was < 4.00

Per the reported Protein arginine N-methyltransferase 3 (Homo sapiens, UniProt O60678) data, C[C@H](N)C(=O)NCc1cccc(-n2nc(C(F)(F)F)cc2-c2nnc(-c3cccc4ncsc34)o2)c1 has pIC50 of < 4.60

Simply: O=C(NC[C@H](O)CN1CCc2ccccc2C1)c1ccc2c(c1)CCN(C(=O)c1ccc(Br)cc1)C2 , Protein arginine N-methyltransferase 3 (Homo sapiens, UniProt O60678), pIC50 = < 4.00

Readout pIC50 for CCCc1cc(C)[nH]c(=O)c1CNC(=O)c1cc(-c2ccc(N3CCN(C)CC3)nc2)cc2c1cnn2C(C)C , test system Protein arginine N-methyltransferase 3 (Homo sapiens, UniProt O60678), was 4.27

# value of pIC50, Protein arginine N-methyltransferase 3 (Homo sapiens, UniProt O60678), item Nc1ncnc2c1c(Br)cn2[C@@H]1O[C@H](CSCC[C@H](N)C(=O)O)[C@@H](O)[C@H]1O = 5.64

Entry COc1cc2c(NC3CCN(C)CC3)nc(N3CCCN(C)CC3)nc2cc1OCCCN(C)C ; assay system Protein arginine N-methyltransferase 3 (Homo sapiens, UniProt O60678); pIC50 recorded at < 4.40

Reading of pIC50 for CN(CCN)Cc1ccccc1Sc1ccccc1Cl with Protein arginine N-methyltransferase 3 (Homo sapiens, UniProt O60678): 7.66

// molecule C[C@H](N)C(=O)NCc1cccc(-n2nc(C(F)(F)F)cc2C(=O)NCc2ccccc2)c1 , assay Protein arginine N-methyltransferase 3 (Homo sapiens, UniProt O60678), pIC50 value: < 4.60

Note to self: pIC50 of Cc1cc(C)cc(Oc2ccc(CNC(=O)[C@H](C)N)cc2C)c1 with Protein arginine N-methyltransferase 3 (Homo sapiens, UniProt O60678) was < 4.00
